# Tested on: GP2D (KRAS G12D) cells
# assay: 2D cell viability assay (CellTiter-Glo)
# Type: cell-based
# test conditions: GP2d, 96 h, 4 days
# Method: Example B. 2D Cell Viability Assay Compounds were tested in a 384-well format for their ability to inhibit the viability of GP2D (KRAS G12D) cells in 2D assays. Compounds were serially diluted (1:3) in DMSO. The LabCyte ECHO Acoustic dispenser system was used to pre-spot assay plates with 200 nL of test molecule per well. […] The plates were incubated at 37° C., 5% CO2 for 4 days before addition of CellTiter-Glo (CTG) reagent and measurement of luminescence signal. […]
measured property: pEC50
Hey, just a heads up that pEC50 is the negative log base 10 of the concentration in molar.

Form field pEC50, entry C#Cc1c(F)ccc2cc(O)cc(-c3nc4c5c(nc(OC[C@@]67CCCN6C[C@H](F)C7)nc5c3F)N3C[C@H]5CC[C@H](N5)[C@H]3[C@@H](C)O4)c12 : 6.28

Form field pEC50, entry C#Cc1c(F)ccc2cccc(-c3nc4c5c(nc(OC[C@@]67CCCN6[C@H](CSc6cc(C(F)(F)F)ncn6)CC7)nc5c3F)N3C[C@H]5CC[C@H](N5)[C@H]3CCC4)c12 : 8.00

Form field pEC50, entry C#Cc1c(F)ccc2cccc(-c3nc4c5c(nc(OC[C@@]67CCCN6[C@H](COc6cnc(C(F)F)cn6)CC7)nc5c3F)N3C[C@H]5CC[C@H](N5)[C@H]3CCC4)c12 : 8.54

Form field pEC50, entry C#Cc1c(F)ccc2cccc(-c3nc4c5c(nc(OC[C@@]67CCCN6C[C@H](F)C7)nc5c3F)N3C[C@H]5CC[C@H](N5)[C@H]3CCC4)c12 : 8.40

Form field pEC50, entry C#Cc1c(F)ccc2cccc(-c3nc4c5c(nc(OC[C@@]67CCCN6[C@H](COCC(F)(F)F)CC7)nc5c3F)N3C[C@H]5CC[C@H](N5)[C@H]3CC4)c12 : 7.42

Form field pEC50, entry C#Cc1c(F)ccc2cc(O)cc(-c3nc4c5c(nc(OC[C@]67CCCN6C[C@H](OC(C(F)(F)F)(C(F)(F)F)C(F)(F)F)C7)nc5c3F)N3C[C@H]5CC[C@H](N5)[C@H]3CC4)c12 : 7.00

Form field pEC50, entry C#Cc1c(F)ccc2cccc(-c3nc4c5c(nc(OCC6(CN7CC[C@H](OC(F)(F)F)C7)CC6)nc5c3F)N3C[C@H]5CC[C@H](N5)[C@@H]3[C@@H](C)C4)c12 : 6.42

Form field pEC50, entry C#Cc1c(F)ccc2cc(O)cc(-c3nc4c5c(nc(OC[C@]67CC(=C)CN6C[C@H](F)C7)nc5c3F)N3C[C@H]5CC[C@H](N5)[C@H]3CO4)c12 : 8.70

Form field pEC50, entry C#Cc1c(F)ccc2cc(O)cc(-c3nc4c5c(nc(OC[C@@]67CCCN6C[C@H](F)C7)nc5c3F)N3C[C@H]5CC[C@H](N5)[C@@H]3[C@H](C)C4)c12 : 7.82

Form field pEC50, entry C#Cc1c(F)ccc2cc(O)cc(-c3nc4c5c(nc(OC[C@@]67CCCN6C[C@H](F)C7)nc5c3F)N3C[C@@]5(C)CC[C@H](N5)[C@H]3CC4)c12 : 8.82

Form field pEC50, entry C#Cc1c(F)ccc2cc(O)cc(-c3nc4c5c(nc(OCC6(CN7CCC(F)CC7)CC6)nc5c3F)N3C[C@H]5CC[C@H](N5)[C@H]3CC4)c12 : 9.22

Form field pEC50, entry C#Cc1c(F)ccc2cc(O)cc(-c3nc4c5c(nc(OC[C@@]67CCCN6[C@H](COC(=O)N(C)c6cccc(S(F)(F)(F)(F)F)c6)CC7)nc5c3F)N3C[C@H]5CC[C@H](N5)[C@H]3CO4)c12 : 7.01

Form field pEC50, entry C#Cc1c(F)ccc2cc(O)cc(-c3nc4c5c(nc(OC[C@@]67CCCN6C[C@H](F)C7)nc5c3F)N3C[C@H]5CC[C@H](N5)[C@H]3CC4(F)F)c12 : 8.11

Form field pEC50, entry C=C(Cl)c1c(C)ccc2cc(O)cc(-c3nc4c5c(nc(OC[C@@]67CCCN6C[C@H](F)C7)nc5c3F)N3CC5CCC(N5)[C@H]3CO4)c12 (stereo in doubt) : 6.51

Form field pEC50, entry C#Cc1c(F)ccc2cc(O)cc(-c3nc4c5c(nc(OC[C@@]67CCCN6[C@H](COc6cc(C(F)(F)F)ncn6)CC7)nc5c3F)N3C[C@H]5CC[C@H](N5)[C@H]3CC4)c12 : 9.52

Form field pEC50, entry Oc1cc(-c2nc3c4c(nc(OC[C@@]56CCCN5C[C@H](F)C6)nc4c2F)N2C[C@H]4CC[C@H](N4)[C@H]2CO3)c2c(F)c(F)c(F)cc2c1 : 7.25

Form field pEC50, entry C#Cc1c(F)ccc2cc(O)cc(-c3nc4c5c(nc(OC[C@@]67CCCN6C[C@H](F)C7)nc5c3F)N3C[C@H]5CC[C@H](N5)[C@H]3[C@@H](C(F)F)O4)c12 : 6.98

Form field pEC50, entry C#Cc1c(F)c(F)cc2cccc(-c3nc4c5c(nc(OC[C@@]67CCCN6C[C@H](F)C7)nc5c3F)N3C[C@H]5CC[C@H](N5)[C@H]3CO4)c12 : 7.10

Form field pEC50, entry C#Cc1c(F)ccc2cc(O)cc(-c3nc4c5c(nc(OC[C@@]67CCCN6C[C@H](F)C7)nc5c3F)N3C[C@H]5CC[C@H](N5)[C@H]3CCO4)c12 : 9.30

Form field pEC50, entry C#Cc1c(F)ccc2cc(N)cc(-c3nc4c5c(nc(OC[C@@]67CCCN6C[C@H](F)C7)nc5c3F)N3C[C@H]5CC[C@H](N5)[C@@H]3[C@@H](C)C4)c12 : 8.74

====

# Tested on: GP2D (KRAS G12D) cells
# assay: 2D cell viability assay (CellTiter-Glo)
# Format: cell-based
# test conditions: GP2d, 96 h, 4 days
measured property: log10 of EC50 (log10 of the value in nM)
# values: log10(EC50), units nM

Form field log10 of EC50, entry Oc1cc(-c2nc3c4c(nc(OC[C@@]56CCCN5C[C@H](F)C6)nc4c2F)N2C[C@H]4CC[C@H](N4)[C@H]2CC3)c2ccccc2c1 : 1.23

Form field log10 of EC50, entry C#Cc1c(F)ccc2cc(O)cc(-c3nc4c5c(nc(OCC6(CN7CC8CC8C7)CC6)nc5c3F)N3C[C@H]5CC[C@H](N5)[C@H]3CC4)c12 (some centres unmarked) : -0.40

Form field log10 of EC50, entry C#Cc1c(F)ccc2cccc(-c3nc4c5c(nc(OC[C@@]67CCCN6[C@H](COc6ccnc(C(F)F)n6)CC7)nc5c3F)N3C[C@H]5CC[C@H](N5)[C@H]3CCC4)c12 : 0.52

Form field log10 of EC50, entry C#Cc1c(F)ccc2cc(O)cc(-c3nc4c5c(nc(OC[C@@]67CCCN6C[C@H](F)C7)nc5c3F)N3C[C@H]5CC[C@H](N5)[C@H]3CCCC4)c12 : -0.22

Form field log10 of EC50, entry C#Cc1c(F)ccc2cc(O)cc(-c3nc4c5c(nc(OCC6(CN7CCC[C@H](F)C7)CC6)nc5c3F)N3C[C@H]5CC[C@H](N5)[C@H]3CO4)c12 : 0.48

====

# subject of test: GDP-loaded KRAS G12D (Homo sapiens (Human), UniProt P01116, G12D)
# Sequence (P01116-2 other isoform, or with tags, fused parts or gaps G12D): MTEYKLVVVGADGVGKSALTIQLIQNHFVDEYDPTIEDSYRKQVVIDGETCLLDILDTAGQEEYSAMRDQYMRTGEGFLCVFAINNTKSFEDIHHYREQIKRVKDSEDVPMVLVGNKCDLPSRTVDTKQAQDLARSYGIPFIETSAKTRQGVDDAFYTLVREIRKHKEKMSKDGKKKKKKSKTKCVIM
# assay: KRAS G12D (GDP) biochemical assay (TR-FRET probe displacement)
# test conditions: 2 hours
Consider the following molecules; for each one, report its pIC50.
Hey, just a heads up that pIC50 is the negative log base 10 of the concentration in molar.

Form field pIC50, entry C#Cc1c(F)ccc2cc(O)cc(-c3nc4c5c(nc(OC[C@@]67CCCN6[C@H](Cn6ccnn6)CC7)nc5c3F)N3C[C@H]5CC[C@H](N5)[C@H]3CO4)c12 : 9.70

Form field pIC50, entry C#Cc1c(F)ccc2cccc(-c3nc4c5c(nc(OC[C@@]67CCCN6C[C@H](F)C7)nc5c3F)N3C[C@H]5CC[C@H](N5)[C@H]3CCCC4)c12 : 9.70

Form field pIC50, entry C#Cc1c(F)ccc2cccc(-c3nc4c5c(nc(OC[C@]67CCCN6CC(OC(C(F)(F)F)(C(F)(F)F)C(F)(F)F)C7)nc5c3F)N3C[C@H]5CC[C@H](N5)[C@H]3CC4)c12 (some centres unmarked) : 6.90

Form field pIC50, entry C=C(Cl)c1c(C)ccc2cc(O)cc(-c3nc4c5c(nc(OC[C@@]67CCCN6C[C@H](F)C7)nc5c3F)N3CC5CCC(N5)[C@H]3CO4)c12 (stereo in doubt) : 7.80

Form field pIC50, entry C#Cc1c(F)ccc2cc(O)cc(-c3nc4c5c(nc(OC[C@@]67CCCN6[C@H](COc6cnc(C(F)(F)F)cn6)CC7)nc5c3F)N3C[C@H]5CC[C@H](N5)[C@H]3CC4)c12 : 10.00

Form field pIC50, entry Oc1cc(-c2nc3c4c(nc(OC[C@@]56CCCN5C[C@H](F)C6)nc4c2F)N2C[C@H]4CC[C@H](N4)[C@H]2CC3)c2c(OC3CC3)c(F)ccc2c1 : 9.00

Form field pIC50, entry C#Cc1c(F)ccc2cccc(-c3nc4c5c(nc(OC[C@@]67CCCN6C[C@H](F)C7)nc5c3F)N3C[C@H]5CC[C@H](N5)[C@H]3[C@H](C)O4)c12 : 9.22

Form field pIC50, entry Oc1cc(-c2nc3c4c(nc(OC[C@@]56CCCN5C[C@H](F)C6)nc4c2F)N2C[C@H]4CC[C@H](N4)[C@H]2CO3)c2c(F)c(Cl)ccc2c1 : 8.70
